The compounds listed here are annotated with their IC50.
# measurement-target: GST-tagged recombinant human full-length TTK protein kinase (Homo sapiens)
# Construct: GST-tagged recombinant human full-length TTK protein kinase; purchased Invitrogen (Life Technologies Ltd., Paisley, U.K.)
# Sequence (P33981 whole entry): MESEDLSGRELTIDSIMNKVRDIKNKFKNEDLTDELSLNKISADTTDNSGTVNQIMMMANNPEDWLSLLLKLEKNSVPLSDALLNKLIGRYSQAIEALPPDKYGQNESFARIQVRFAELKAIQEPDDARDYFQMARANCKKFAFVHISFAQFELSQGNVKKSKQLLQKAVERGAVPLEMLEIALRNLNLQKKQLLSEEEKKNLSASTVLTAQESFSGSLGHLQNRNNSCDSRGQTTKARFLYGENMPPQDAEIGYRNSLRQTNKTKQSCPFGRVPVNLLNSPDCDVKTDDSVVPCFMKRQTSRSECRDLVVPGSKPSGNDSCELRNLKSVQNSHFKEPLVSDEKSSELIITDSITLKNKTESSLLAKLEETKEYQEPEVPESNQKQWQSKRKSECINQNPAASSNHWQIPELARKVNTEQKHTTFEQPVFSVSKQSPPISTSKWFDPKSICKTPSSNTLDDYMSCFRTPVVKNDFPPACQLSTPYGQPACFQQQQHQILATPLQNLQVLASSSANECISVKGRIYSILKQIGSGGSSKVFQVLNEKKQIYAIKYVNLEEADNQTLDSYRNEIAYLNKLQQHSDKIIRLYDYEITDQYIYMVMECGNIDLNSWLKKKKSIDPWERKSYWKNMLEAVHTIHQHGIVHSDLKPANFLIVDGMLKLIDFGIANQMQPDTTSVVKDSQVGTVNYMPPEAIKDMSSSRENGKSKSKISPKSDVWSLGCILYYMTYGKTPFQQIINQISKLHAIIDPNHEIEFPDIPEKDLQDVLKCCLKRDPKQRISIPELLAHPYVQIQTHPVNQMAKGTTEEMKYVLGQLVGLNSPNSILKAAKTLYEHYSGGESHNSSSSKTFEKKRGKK
# assay-procedure: TTK mobility shift microfluidics assay, IC50 determination (3 nM TTK)
# Type: biochemical
# run-parameters: 10% DMSO (asterisk); 3 nM TTK, 10 μM ATP; duplicate on the same plate
Numeric only. Scale: µM

Before answering, review these 2 worked examples.
COc1ccc(Nc2ccc3nnc(C(F)(F)F)n3n2)cc1OC [Compound 21] = 90.1
Cc1ccc2[nH]c3c(N4CCCCC4)ncnc3c2c1 [Compound 9] = 246

Alright, here's another compound for you.
Output IC50 of COc1ccc(Nc2ccc3nnnn3n2)cc1OC [Compound 20]
78.6
